Measured values drawn from patent US20210238170A1 for this set.

Target: human SGLT1 (Homo sapiens)
Construct: expressed in transfected cells
Sequence (P13866 whole entry): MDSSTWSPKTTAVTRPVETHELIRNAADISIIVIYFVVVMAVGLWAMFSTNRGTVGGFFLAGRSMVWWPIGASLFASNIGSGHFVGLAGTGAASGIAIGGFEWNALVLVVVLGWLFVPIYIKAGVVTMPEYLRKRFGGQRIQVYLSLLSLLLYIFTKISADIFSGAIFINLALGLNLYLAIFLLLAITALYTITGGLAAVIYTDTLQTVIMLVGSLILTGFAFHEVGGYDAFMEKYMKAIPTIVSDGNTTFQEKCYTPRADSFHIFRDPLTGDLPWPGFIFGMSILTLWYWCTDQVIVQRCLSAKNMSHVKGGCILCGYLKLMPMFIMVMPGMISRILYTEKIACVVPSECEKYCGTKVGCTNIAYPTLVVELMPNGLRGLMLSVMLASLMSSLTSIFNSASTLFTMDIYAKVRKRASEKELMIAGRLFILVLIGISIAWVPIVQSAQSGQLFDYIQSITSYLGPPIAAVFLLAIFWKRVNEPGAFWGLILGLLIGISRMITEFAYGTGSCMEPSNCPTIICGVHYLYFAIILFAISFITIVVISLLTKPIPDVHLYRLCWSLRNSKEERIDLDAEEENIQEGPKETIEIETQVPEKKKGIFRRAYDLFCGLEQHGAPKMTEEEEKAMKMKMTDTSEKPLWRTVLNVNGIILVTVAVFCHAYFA
Experiment: SGLT1 in vitro assay: Na-dependent 14C-AMG uptake in CHO-K1 cells stably expressing human SGLT1
Type: cell-based
Details: CHO-K1 cells stably expressing human SGLT1; 14C-AMG uptake; compounds of formula (I) where R0 is fluoro
PROPERTY_NAME: IC50 (nM)

{"CHEMICAL_STRUCTURE": "Cc1ccc(Cc2cc([C@@H]3O[C@H](CO)C(F)(F)[C@H](O)[C@H]3O)c(O)cc2Cl)cc1", "MEASURE_UNIT": "nM", "OBSERVED_VALUE": 12}
{"CHEMICAL_STRUCTURE": "COc1cc(O)c([C@@H]2O[C@H](CO)C(F)(F)[C@H](O)[C@H]2O)cc1Cc1ccc(C2CC2)cc1", "MEASURE_UNIT": "nM", "OBSERVED_VALUE": 72}
{"CHEMICAL_STRUCTURE": "COc1ccc(Cc2cc([C@@H]3O[C@H](CO)C(F)(F)[C@H](O)[C@H]3O)c(O)cc2OC)cc1", "MEASURE_UNIT": "nM", "OBSERVED_VALUE": 74}
{"CHEMICAL_STRUCTURE": "Cc1cc(O)c([C@@H]2O[C@H](CO)C(F)(F)[C@H](O)[C@H]2O)cc1Cc1cc2c(s1)CCN(C#N)C2", "MEASURE_UNIT": "nM", "OBSERVED_VALUE": 505}
{"CHEMICAL_STRUCTURE": "Cc1ccc(Cc2cc([C@@H]3O[C@H](CO)C(F)(F)[C@H](O)[C@H]3O)c(O)cc2Cl)s1", "MEASURE_UNIT": "nM", "OBSERVED_VALUE": 35}
{"CHEMICAL_STRUCTURE": "Cc1cc(O)c([C@@H]2O[C@H](CO)C(F)(F)[C@H](O)[C@H]2O)cc1Cc1ccc(OC(F)F)cc1", "MEASURE_UNIT": "nM", "OBSERVED_VALUE": 318}
{"CHEMICAL_STRUCTURE": "COc1cc(C)c(Cc2ccc(OCF)cc2)cc1[C@@H]1O[C@H](CO)C(F)(F)[C@H](O)[C@H]1O", "MEASURE_UNIT": "nM", "OBSERVED_VALUE": 836}
